subject_of_test: human glucagon receptor (human, UniProt P47871 26-477)
assay_protocol: cell-based or functional assay
Starred links: 1 amine or outer side, 2 acyl side, 3 side chain; linkers in the order of their positions; H or OH if unused. Non-standard residues stand in square brackets, D forms with d. Groups on a side chain read outwards from the residue. No end group written: not given here. *: point of attachment. C18 diacid = O=C(O)CCCCCCCCCCCCCCCCC(=O)*; Lys(N3) = [N-]=[N+]=NCCCC[C@H](N)C(=O)O; γGlu = O=C(O)[C@H](CCC(=O)[*:2])N[*:1]; Met(O2) = CS(=O)(=O)CC[C@H](N)C(=O)O; AEEA = NCCOCCOCC(=O)O; Aib = CC(C)(N)C(=O)O
quantity_measured: hGCGR_EC50 (cAMP activity assay) (nM)
Write it as a number; the unit nM goes unstated.

Examples with answers:
binder	readout_number
HXQGTFTSDKSKYLDXRAAQDFVQWLLDTKK (Aib (U) at 2 and 16; Lys 10 K(γEγEC16); Lys 31 K(PEG2PEG2-C5N3); C-terminal amide) [PEP21]	0.08
HXQGTFTSDKSKYLDERAAQDFVXWXXDT (D-Ser (s) at 2; Lys 10 K(γEγEC16); Nle(εN3) at 24; alpha-methyl-L-Leu (αML) at 26; L-methionine sulphone (2) at 27; C-terminal amide) [PEP37]	0.06
H[Aib]QGTFTSDYSKYLDARAAK([AEEA-AEEA-γGlu-C18 diacid])DFV[Lys(N3)]WL[Met(O2)]DT-NH2 [PEP30]	2.27
HXQGTFTSDKSKYLDERAAQDFVKWLLDT (D-Ser (s) at 2; Lys 10 K(γEγEC16); Lys 24 K(PEG2-C5N3); C-terminal amide) [PEP14]	0.05
HXQGTFTSXKSKYLDERAAQDFVXWLXDT (D-Ser (s) at 2; alpha-methyl-L-Asp (αMD) at 9; Lys 10 K(γEγEC16); Nle(εN3) at 24; L-methionine sulphone (2) at 27; C-terminal amide) [PEP32]	0.06

Ask: What value of hGCGR_EC50 (cAMP activity assay) has been recorded for this entry: H[dS]QGTFTSDKSKYLDERAA[Lys(N3)]DFVQWLLDT-NH2 [PEP71]
Reply: 0.12
